Tested on: A549
Assay: NCI tumour cell line growth inhibition, 48 h
The source made the active and inactive calls. No stated cut-off is given here; in the data, active = GI50 up to about 1.1 µM and inactive = higher.
readoutName: GI50

compound | measuredOn | GI50
CCN(CC)c1ccc2cc3ccc(N(CC)CC)cc3[o+]c2c1 | A549 | 3.14 µM (inactive)
N#CSc1[nH]cnc1C(N)=O | A549 | > 100 µM (inactive)
CC12CP(=O)(c3ccccc3)CC1c1ccccc1C2c1ccccc1 (stereo unspecified) | A549 | 16.4 µM (inactive)
COc1cc(NC(C)CCCN)c2ncccc2c1 (stereo unspecified) [PRIMAQUINE PHOSPHATE] | A549 | > 100 µM (inactive)

Which GI50 is listed for Nc1nnc(N)n1N ?
> 100 µM (inactive)

COC(=O)C(C(=O)OC)C1CC(=O)c2c(Br)sc(Br)c21 (stereo unspecified) ?
25 µM (inactive)

====

Test system: M19-MEL
Assay: NCI tumour cell line growth inhibition, 48 h
The source made the active and inactive calls. No stated cut-off is given here; in the data, active = GI50 up to about 1.1 µM and inactive = higher.
The reply should name one outcome from 1 = active, 0 = inactive

Sample answers from the record:
compound | measuredOn | labelValue
O=C(NC(Cc1ccc(I)cc1)C(=O)O)c1ccc(I)cc1 (centres undefined) | M19-MEL | 0
COC1C(O)=C2C(=O)O/C(C)=C/C=C/C=C/C=C\CC(c3ccccc3)NC(=O)\C=C/C=C\C=C\C=C\[C@@]2(C)[C@@H]1O (some centres undefined) | M19-MEL | 1

Query: recorded result category for CC(=O)c1ccc(NC(=O)COC(=O)c2cccc3c(=O)c4ccccc4[nH]c23)cc1 in this test
0

CCOC(=O)C(=O)/C=C(\C)Nc1c(NC2OCC(OC(C)=O)C(OC(C)=O)C2OC(C)=O)nc(SC)[nH]c1=O (centres undefined) ?
0

====

Test system: NCI-H460
Assay: NCI tumour cell line growth inhibition, 48 h
Calls of active or inactive are those of the source. Rule as the data show it: active = GI50 up to about 1.1 µM and inactive = higher.
Each item that follows carries a reported GI50.

Some molecules with recorded GI50:
molecule | resultValue
CC12CCC(=O)N1[C@@H](c1ccccc1)[C@@H](c1ccccc1)O2 (stereo not given in full) | > 100 µM (inactive)
CCOC(=O)/C=C(\C(=O)OCC)n1ccc(N)nc1=O | > 100 µM (inactive)

Now for the molecule whose GI50 we want.
Entry CC(C)CC(Nc1c(O)ccc2ccccc12)C(=O)O (stereo not given) , system NCI-H460: what GI50 was measured?
35.2 µM (inactive)

====

System: A549
Test: NCI tumour cell line growth inhibition, 48 h
Calls of active or inactive are those of the source. Rule as the data show it: active = GI50 up to about 1.1 µM and inactive = higher.
The reply should name one outcome from TRUE for active, FALSE for inactive

Sample answers from the record:
compound | labelValue
C#C[C@]1(O)CC[C@H]2[C@@H]3CCC4=C/C(=N/NC(=O)c5cccc6c(=O)c7ccccc7[nH]c56)CCC4[C@H]3CC[C@@]21C (some centres undefined) | FALSE
CCC(Nc1ncnc2nc[nH]c12)C(=O)O (centres undefined) | FALSE
CC(=O)OCC1OC(n2c(N)c(C#N)c(-c3cccc(Cl)c3)c(C#N)c2=S)C(OC(C)=O)C(OC(C)=O)C1OC(C)=O (centres undefined) | FALSE
O=C(/C=C/C=C/c1ccccc1)CCc1ccccc1 | FALSE
c1ccc2c(c1)SCCCSCCSCCCS2 | FALSE

Query: recorded result category for CC12CCC(=O)N1[C@@H](c1ccccc1)[C@@H](c1ccccc1)O2 (some centres undefined) in this test
FALSE

COC1C(O)=C2C(=O)O/C(C)=C/C=C/C=C/C=C\CC(c3ccccc3)NC(=O)\C=C/C=C\C=C\C=C\[C@@]2(C)[C@@H]1O (some centres undefined) ?
TRUE

O=C(O)C1(C(O)c2ccccc2)SCCCS1 (centres undefined) ?
FALSE

O=[N+]([O-])c1ccc(-c2nc3cc([N+](=O)[O-])ccc3[nH]2)cc1 ?
FALSE

====

Test system: A498
Test: NCI tumour cell line growth inhibition, 48 h
The source made the active and inactive calls. Rule as the data show it: active = GI50 up to about 1.1 µM and inactive = higher.
readoutName: GI50

compound | resultValue
CCOC(=O)C1(C(=O)OCC)C[C@H](C)[C@](C)(O)C1 | > 100 µM (inactive)

Which GI50 is listed for CC(C)(CN1CCCCC1)C(=O)/C=C/c1ccc(Cl)c(Cl)c1 ?
1.67 µM (inactive)

NC(=O)NNC/C(Cl)=C(\Cl)C(=O)O ?
> 100 µM (inactive)

C=C1c2ccccc2Oc2nc3nc(N)c(C#N)c(N)c3c(N)c21 ?
> 100 µM (inactive)

OCC1OC(NO)C(O)C(O)C1O (stereo unspecified) ?
> 100 µM (inactive)

CCc1cccc(C)c1N1C(=O)C(=O)C(c2nc3ccccc3o2)C(=O)C1=O ?
> 100 µM (inactive)

====

System: RXF 393
Test: NCI tumour cell line growth inhibition, 48 h
Activity calls are given as the source filed them. Rule as the data show it: active = GI50 up to about 1.1 µM and inactive = higher.
The reply should name one outcome from T for active, F for inactive

Sample answers from the record:
molecule | labelValue
CCC(=O)OCOc1ccc(/C=C2\CCC(CN(C)C)C2=O)cc1 (stereo not given) | F
Cc1cccc(/C=N\NC(=S)N2CCCCC2)n1 | T
Oc1ccc(CCNCc2cc3c(cc2Br)OCO3)cc1 | F
COC12COC(=O)C1C(c1ccc3c(c1)OCO3)c1cc3c(cc1O2)OCO3 (stereo not given) | F
Nc1nc2c(=O)c3ccccc3sc2s1 | F

Query: recorded result category for CC(NC(=O)C(C)NC(=O)C(N)CCP(C)(=O)O)C(=O)O (stereo not given) in this test
F

CN1CC[C@]2(c3cccc(O)c3)CC(=O)/C(=C/c3ccc(Cl)c(Cl)c3)[C@@H]1C2 ?
T

O=c1cc(-c2ccncc2)[nH]c2cc3c(cc12)OCO3 ?
F

CCc1c(N=[N+]=[N-])c2ccccc2oc1=O ?
F

FC(F)(Sc1ccccc1)c1nc2ccccc2o1 ?
F

COC1C(CN[N+](=O)CC2OC3OC(C)(C)OC3C2OC)OC2OC(C)(C)OC21 (stereo not given) ?
F

O=C1C2=Cc3ccccc3OC2(O)Oc2cc(O)cc(O)c21 (stereo not given) ?
F

CO/N=C(\C(=O)[N-]n1cn[n+](CC(=O)OC(C)(C)C)c1)c1csc(NC(c2ccccc2)(c2ccccc2)c2ccccc2)n1 ?
F

COC(=O)c1cc2c(cc1CC(Cc1ccc3c(c1)CCC3)C(=O)OC)CCC2 (stereo not given) ?
F

Nc1ncnc2c1ncn2C(=O)NC12CC3CC(CC(C3)C1)C2 ?
F

====

Tested on: SF-539
Experiment: NCI tumour cell line growth inhibition, 48 h
The source made the active and inactive calls. Rule as the data show it: active = GI50 up to about 1.1 µM and inactive = higher.
The reply should name one outcome from active, inactive

Sample answers from the record:
molecule | measuredOn | labelValue
COc1ccccc1C1(c2c(OC)c(=O)c2=O)SCCCS1 | SF-539 | inactive
COc1ccc(NC(=O)N(C)CC2(O)CCC(C(C)(C)C)CC2)cc1 (stereo unspecified) | SF-539 | inactive
C=C(Br)C(C)(Br)CCC(Br)C(C)(C)Cl (stereo unspecified) | SF-539 | inactive

Query: recorded result category for O=[N+]([O-])c1cccc2nc3ccccc3c(NCCNCCO)c12 in this test
active

Cc1c(C(=O)CC(=O)C(=O)Nc2ccccc2C(F)(F)F)[n+]([O-])c2ccccc2[n+]1[O-] ?
inactive

CC1(c2ccccc2)CC(c2ccccc2)=NO1 (stereo unspecified) ?
inactive

O=C(Nc1ccc2cc3ccccc3cc2c1)c1cc2c(cc1Cl)Sc1nccn1S2(=O)=O ?
inactive

Nc1cc2c3c(cccc3c1)C(=O)N(c1ccc(OCCN3CCCC3)cc1)C2=O ?
inactive

====

Tested on: KM12
Test: NCI tumour cell line growth inhibition, 48 h
Active and inactive are the calls of the source. No stated cut-off is given here; in the data, active = GI50 up to about 1.1 µM and inactive = higher.
The reply should name one outcome from yes (active), no (inactive)

molecule | labelValue
CC(=O)Nc1ccc2cc(C#N)c(=O)[nH]c2n1 | no

Consider the additional molecule presented here.
Query: recorded result category for CCc1cccc(C)c1N1C(=O)C(=O)C(c2nc3ccccc3o2)C(=O)C1=O in this test
no

====

Each item that follows carries a reported GI50.
System: SNB-75
Assay: NCI tumour cell line growth inhibition, 48 h
Calls of active or inactive are those of the source. Cut-off read from the data, not from the text of the source: active = GI50 up to about 1.1 µM and inactive = higher.

molecule | measuredOn | resultValue
O=C1C(=C2SC(c3ccccc3)(c3ccccc3)c3ccccc32)C(=O)c2ccccc21 | SNB-75 | > 100 µM (inactive)
CCOC(=O)C1(C(=O)OCC)C[C@H](C)[C@](C)(O)C1 | SNB-75 | > 100 µM (inactive)
Clc1ccc(C(SCc2ccccc2)SCc2ccccc2)cc1 | SNB-75 | > 10 µM (inactive)
NC1=NCC(CN2CCOCC2)O1 (configuration not stated) | SNB-75 | 62.2 µM (inactive)
COC(=O)C(=O)C(C(=O)C(=O)Nc1ccc([N+](=O)[O-])cc1[N+](=O)[O-])c1nc2ccc(Cl)cc2nc1O (configuration not stated) | SNB-75 | 16.5 µM (inactive)

Which GI50 is listed for CC1(C)CC(=O)C(C(CC(c2ccccc2)c2cc3c(cc2O)OCO3)C2=C(O)CC(C)(C)CC2=O)=C(O)C1 (configuration not stated) ?
> 10 µM (inactive)

CCOC(=O)[C@H]1C[C@]23CN(C(=O)OC(C)(C)C)CC[C@H]2CCC2(SCCCS2)[C@@H]3N1C ?
72.9 µM (inactive)

O=C(O)c1cnc2c(ccc3ncc(C(=O)O)c(O)c32)c1O ?
34.8 µM (inactive)

COC(=O)CCC(NC(=S)N/N=C/c1ccccn1)C(=O)OC (configuration not stated) ?
> 100 µM (inactive)

CCOP(=O)(/C=C\n1cc(C)c(=O)[nH]c1=O)OCC ?
> 100 µM (inactive)

CC(=O)Nc1ccc2cc(C#N)c(=O)[nH]c2n1 ?
> 100 µM (inactive)
